These entries and their values trace back to patent US20240336593A1.

Let's go through some IC50 measurements on PRMT5 (Homo sapiens (Human), UniProt O14744) together.
Sequence (O14744 whole entry): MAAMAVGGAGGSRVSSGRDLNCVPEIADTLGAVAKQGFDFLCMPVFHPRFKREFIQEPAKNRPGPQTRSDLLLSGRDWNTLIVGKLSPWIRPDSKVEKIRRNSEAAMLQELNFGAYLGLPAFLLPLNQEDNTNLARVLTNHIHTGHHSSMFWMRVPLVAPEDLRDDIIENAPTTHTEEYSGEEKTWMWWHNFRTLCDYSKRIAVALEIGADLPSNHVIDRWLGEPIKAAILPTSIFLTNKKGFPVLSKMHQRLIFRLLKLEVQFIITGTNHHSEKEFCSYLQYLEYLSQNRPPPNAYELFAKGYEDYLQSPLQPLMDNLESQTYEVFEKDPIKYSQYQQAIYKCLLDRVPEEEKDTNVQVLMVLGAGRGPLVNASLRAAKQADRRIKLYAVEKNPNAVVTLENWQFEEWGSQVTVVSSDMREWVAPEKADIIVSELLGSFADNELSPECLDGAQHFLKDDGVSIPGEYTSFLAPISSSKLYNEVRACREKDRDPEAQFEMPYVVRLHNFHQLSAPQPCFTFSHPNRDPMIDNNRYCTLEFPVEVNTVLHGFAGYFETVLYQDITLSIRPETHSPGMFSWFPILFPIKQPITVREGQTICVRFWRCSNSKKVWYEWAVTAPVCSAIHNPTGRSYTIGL
Sequence (Q9BQA1 whole entry partner): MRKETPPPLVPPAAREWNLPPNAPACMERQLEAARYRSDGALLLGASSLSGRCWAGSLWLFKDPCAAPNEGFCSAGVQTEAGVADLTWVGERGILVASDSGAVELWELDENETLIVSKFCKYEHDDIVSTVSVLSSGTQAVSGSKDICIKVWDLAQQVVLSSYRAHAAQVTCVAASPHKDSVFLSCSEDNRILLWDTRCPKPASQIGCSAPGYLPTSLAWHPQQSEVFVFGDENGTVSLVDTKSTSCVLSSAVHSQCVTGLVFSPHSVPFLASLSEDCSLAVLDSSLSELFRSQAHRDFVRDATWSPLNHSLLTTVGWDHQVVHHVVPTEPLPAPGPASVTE

Solved cases (2 shown):
1) O[C@@H]1CN(c2cc(Nc3cccc(-c4ccccc4)c3)ncn2)CC[C@H]1N1CCc2ccccc2C1 (relative stereo) | < 100 nM
2) COc1c(F)cccc1Nc1cc(N2CC[C@@H](N3CCc4ccccc4C3)[C@H](O)C2)ncn1 (relative stereo) | < 100 nM

Qu. For O=C(c1cc(NC2CCOCC2)ncn1)N1CC[C@H](N2CCc3ccccc3C2)[C@@H](O)C1 , what is its reported IC50?
Ans. < 100 nM

Qu. For COc1nc(NC2CCN(C(C)=O)CC2)cc(C(=O)N2CC[C@H](N3CCc4ccccc4C3)[C@@H](O)C2)n1 (relative stereo) , what is its reported IC50?
Ans. < 100 nM

Qu. For CCC(CC)Oc1nc(NC2CCN(C(C)=O)CC2)cc(C(=O)N2CC[C@@H](N3CCc4ccccc4C3)[C@H](O)C2)n1 , what is its reported IC50?
Ans. < 100 nM

Qu. For O[C@H]1CN(c2cc(Nc3ccccc3OC(F)(F)F)ncn2)CC[C@@H]1N1CCc2ccccc2C1 (relative stereo) , what is its reported IC50?
Ans. < 100 nM

Qu. For O[C@H]1CN(c2cc(Nc3ccc(F)cc3)ncn2)CC[C@@H]1N1CCc2ccccc2C1 (relative stereo) , what is its reported IC50?
Ans. < 100 nM
